B1: glmS ribozyme (parent)
chain: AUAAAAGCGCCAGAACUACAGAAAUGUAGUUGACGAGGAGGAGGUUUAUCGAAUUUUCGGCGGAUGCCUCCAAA

# Variants of: B1
# protocol_description: kcat; higher = faster cleavage; RNA array
# experimental_setup: with glucosamine-6-phosphate
Fewer inactive variants are shown than the library holds.
assay_metric: kcat (s⁻¹)

# mutation, assay_metric, value_unit, relation_qualifier, value_observed
records = [
    ("A39U C68U", "kcat", "s⁻¹", "=", 0.00901),
    ("G37C A53G", "kcat", "s⁻¹", "=", "3.88e-05"),
    ("G13C G32C", "kcat", "s⁻¹", "=", 0.000728),
    ("A39C U46G", "kcat", "s⁻¹", "=", 0.000897),
    ("A12G U55C", "kcat", "s⁻¹", "=", 0.00114),
    ("G51A U69G", "kcat", "s⁻¹", "=", "5.93e-05"),
    ("U69C C70U", "kcat", "s⁻¹", "=", 0.000681),
    ("U45G U56G", "kcat", "s⁻¹", "=", 0.00528),
    ("A52G C68G", "kcat", "s⁻¹", "=", "5.61e-05"),
    ("C10U G60A", "kcat", "s⁻¹", "=", "1.02e-05"),
    ("G37C U47G U69G", "kcat", "s⁻¹", "=", "7.04e-05"),
    ("A39G U54A", "kcat", "s⁻¹", "=", 0.0133),
    ("C16G U55G", "kcat", "s⁻¹", "=", 0.0033),
    ("A52C U57C", "kcat", "s⁻¹", "=", "3.44e-05"),
    ("A14U C50U", "kcat", "s⁻¹", "=", "4.31e-05"),
    ("A14U U31G A39C", "kcat", "s⁻¹", "=", 0.000999),
    ("U57A G66A", "kcat", "s⁻¹", "=", 0.000171),
    ("A14U U65C", "kcat", "s⁻¹", "=", "8.95e-05"),
    ("U49C A53U", "kcat", "s⁻¹", "<", "1e-05"),
    ("A6C C68U", "kcat", "s⁻¹", "=", "4.51e-05"),
    ("C58U C61G", "kcat", "s⁻¹", "=", "3.19e-05"),
    ("U54C C68A", "kcat", "s⁻¹", "=", "2.49e-05"),
    ("G62U C70G", "kcat", "s⁻¹", "=", "1.57e-05"),
    ("A53U A64C", "kcat", "s⁻¹", "=", "8.67e-05"),
    ("A42G U45A", "kcat", "s⁻¹", "=", 0.0167),
    ("A14C G40A", "kcat", "s⁻¹", "=", 0.00106),
    ("G29U A52G", "kcat", "s⁻¹", "=", 0.00036),
    ("G63C U65G", "kcat", "s⁻¹", "<", "1e-05"),
    ("A14U C50A U54G G62A C68U", "kcat", "s⁻¹", "=", "3.85e-05"),
    ("A48U U54G C70U", "kcat", "s⁻¹", "=", 0.000549),
    ("A12U C58A", "kcat", "s⁻¹", "=", 0.00172),
    ("A39G G66U", "kcat", "s⁻¹", "=", 0.00533),
    ("G62A U69A", "kcat", "s⁻¹", "=", "3.46e-05"),
    ("A53C U57A U69A", "kcat", "s⁻¹", "=", "1.88e-05"),
    ("A14U G43U", "kcat", "s⁻¹", "<", "1e-05"),
    ("G59U C68G", "kcat", "s⁻¹", "=", "2.57e-05"),
    ("G41U U47G", "kcat", "s⁻¹", "=", 0.00121),
    ("A6U C58G", "kcat", "s⁻¹", "<", "1e-05"),
    ("G60U C67A C68U", "kcat", "s⁻¹", "<", "1e-05"),
    ("G37A A52U", "kcat", "s⁻¹", "=", "5.16e-05"),
    ("A12G C58G C67A", "kcat", "s⁻¹", "=", 0.000115),
    ("U46G C68A", "kcat", "s⁻¹", "=", "3.1e-05"),
    ("A15U G32U", "kcat", "s⁻¹", "=", 0.00104),
    ("U47G U65C", "kcat", "s⁻¹", "=", 0.000283),
    ("C16A C50A", "kcat", "s⁻¹", "<", "1e-05"),
    ("A15U", "kcat", "s⁻¹", "=", 0.0104),
    ("U47C C71U", "kcat", "s⁻¹", "=", 0.00356),
    ("G37C C70U", "kcat", "s⁻¹", "=", "2.69e-05"),
    ("A15U G66U", "kcat", "s⁻¹", "=", 0.000139),
    ("G40C U46C", "kcat", "s⁻¹", "=", 0.00119),
    ("G32A G66U", "kcat", "s⁻¹", "=", 0.000161),
    ("A33C C50A", "kcat", "s⁻¹", "<", "1e-05"),
    ("G40U U46C", "kcat", "s⁻¹", "=", 0.00175),
    ("U30A U49A C68A C71G", "kcat", "s⁻¹", "=", "4.8e-05"),
    ("C34A A36C U45A", "kcat", "s⁻¹", "<", "1e-05"),
    ("U56G A64G", "kcat", "s⁻¹", "=", 0.0177),
    ("G38A A52C", "kcat", "s⁻¹", "=", "1.04e-05"),
    ("C67G U69A", "kcat", "s⁻¹", "=", "1.14e-05"),
    ("A12C G43U", "kcat", "s⁻¹", "=", "5.32e-05"),
    ("C50G G51A G59U C70G", "kcat", "s⁻¹", "=", 0.000102),
    ("U56C A64G", "kcat", "s⁻¹", "=", 0.000167),
    ("G40A A48U", "kcat", "s⁻¹", "=", 0.000176),
    ("U30C G40C", "kcat", "s⁻¹", "=", "4.04e-05"),
    ("G29A U30A", "kcat", "s⁻¹", "=", 0.00133),
    ("A14G C70U C71G", "kcat", "s⁻¹", "=", 0.000213),
    ("G32U C58A", "kcat", "s⁻¹", "=", 0.00151),
    ("C50G U54G", "kcat", "s⁻¹", "=", "4.74e-05"),
    ("G13U C71G", "kcat", "s⁻¹", "=", "5.14e-05"),
    ("C58A C68U", "kcat", "s⁻¹", "=", 0.000273),
    ("A6C C70U", "kcat", "s⁻¹", "=", 0.000107),
    ("G41U U55C", "kcat", "s⁻¹", "=", 0.000532),
    ("G41C U56A", "kcat", "s⁻¹", "=", 0.000159),
    ("G51A C67G", "kcat", "s⁻¹", "=", "2e-05"),
    ("G13C G66A", "kcat", "s⁻¹", "=", "6.45e-05"),
    ("U69G C70A", "kcat", "s⁻¹", "=", "4.72e-05"),
    ("A12U G44U", "kcat", "s⁻¹", "=", 0.000852),
    ("A39U G40C", "kcat", "s⁻¹", "=", 0.00382),
    ("G35U C67G", "kcat", "s⁻¹", "=", "1.19e-05"),
    ("G32U C58U", "kcat", "s⁻¹", "=", 0.000916),
    ("U30G U45C", "kcat", "s⁻¹", "=", 0.000451),
    ("A48G C68A", "kcat", "s⁻¹", "=", "1.35e-05"),
    ("G32U C68U", "kcat", "s⁻¹", "=", 0.000114),
    ("G29A G63C", "kcat", "s⁻¹", "<", "1e-05"),
]
